# METHOD_NOTES: Octanol/water partition co-efficient, log P of the compound by HPLC method
# Format: physicochemical
Here the recorded logP is given for each entry.
MEASURED_QUANTITY: logP

> print(dat)
                               smiles.entry  value.measured
1  C[Si](C)(O)c1ccc(N(CCc2ccccc2)S(=O)(=O)c2ccccc2)cc1            4.32
2   C[Si](C)(O)c1ccc(NS(=O)(=O)c2ccccc2)cc1            2.22
3  C[Si](C)(O)c1ccc(N(Cc2ccccc2)S(=O)(=O)c2ccccc2)cc1            3.92
4  CCN(c1ccc([Si](C)(C)O)cc1)S(=O)(=O)c1ccccc1             3.2
5  COC(=O)CN(c1ccc([Si](C)(C)O)cc1)S(=O)(=O)c1ccccc1            2.79
6  COC(=O)CN(c1ccc(C(C)(C)O)cc1)S(=O)(=O)c1ccccc1            2.35
7  COCCN(c1ccc([Si](C)(C)O)cc1)S(=O)(=O)c1ccccc1            2.81
8  CCCCN(c1ccc([Si](C)(C)O)cc1)S(=O)(=O)c1ccccc1            4.05
9  CN(c1ccc([Si](C)(C)O)cc1)S(=O)(=O)c1ccccc1             2.9

====

# TGT: Nuclear receptor subfamily 1 group I member 2 (Homo sapiens, UniProt O75469)
# Sequence (O75469 whole entry, the tested form may be a part): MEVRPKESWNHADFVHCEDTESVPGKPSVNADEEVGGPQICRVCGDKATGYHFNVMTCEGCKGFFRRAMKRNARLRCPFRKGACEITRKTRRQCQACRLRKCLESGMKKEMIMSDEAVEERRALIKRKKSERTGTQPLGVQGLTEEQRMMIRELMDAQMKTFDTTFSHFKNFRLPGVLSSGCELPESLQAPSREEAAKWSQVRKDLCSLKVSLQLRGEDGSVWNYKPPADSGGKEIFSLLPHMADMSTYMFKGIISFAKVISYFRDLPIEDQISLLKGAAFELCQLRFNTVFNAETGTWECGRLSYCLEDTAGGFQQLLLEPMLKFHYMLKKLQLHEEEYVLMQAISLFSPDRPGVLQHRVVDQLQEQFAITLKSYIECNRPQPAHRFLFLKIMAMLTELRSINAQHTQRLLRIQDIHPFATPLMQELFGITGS
# METHOD_NOTES: Agonist activity at VP16-fused human PXR expressed in HEK293 cells after 24 hrs by luciferase reporter gene assay
# Type: cell-based
# EXPERIMENTAL_SETUP: read-out: EC50
pEC50: −log10 of the molar value.
MEASURED_QUANTITY: pEC50

> print(dat)
                               smiles.entry                                       tgt  value.measured
1  CCN(c1ccc([Si](C)(C)O)cc1)S(=O)(=O)c1ccccc1  Nuclear receptor subfamily 1 group I member 2 (Homo sapiens, UniProt O75469)            5.72
2  C[Si](C)(O)c1ccc(N(CCc2ccccc2)S(=O)(=O)c2ccccc2)cc1  Nuclear receptor subfamily 1 group I member 2 (Homo sapiens, UniProt O75469)            4.85
3   C[Si](C)(O)c1ccc(NS(=O)(=O)c2ccccc2)cc1  Nuclear receptor subfamily 1 group I member 2 (Homo sapiens, UniProt O75469)            5.62
4  CCCCN(c1ccc([Si](C)(C)O)cc1)S(=O)(=O)c1ccccc1  Nuclear receptor subfamily 1 group I member 2 (Homo sapiens, UniProt O75469)            5.19
5  C[Si](C)(O)c1ccc(N(Cc2ccccc2)S(=O)(=O)c2ccccc2)cc1  Nuclear receptor subfamily 1 group I member 2 (Homo sapiens, UniProt O75469)            5.49
6  COC(=O)CN(c1ccc([Si](C)(C)O)cc1)S(=O)(=O)c1ccccc1  Nuclear receptor subfamily 1 group I member 2 (Homo sapiens, UniProt O75469)            5.85
7  CN(c1ccc([Si](C)(C)O)cc1)S(=O)(=O)c1ccccc1  Nuclear receptor subfamily 1 group I member 2 (Homo sapiens, UniProt O75469)            5.47
8  C[Si](C)(O)c1ccc(N(CC(F)(F)F)S(=O)(=O)c2ccccc2)cc1  Nuclear receptor subfamily 1 group I member 2 (Homo sapiens, UniProt O75469)            6.20
9  COCCN(c1ccc([Si](C)(C)O)cc1)S(=O)(=O)c1ccccc1  Nuclear receptor subfamily 1 group I member 2 (Homo sapiens, UniProt O75469)            5.38
